All values here come from the supplement of paper PMC10899765.

System: MCF10A
Assay: 5+ nucleoli phenotype percent effect (relative to siNT 0% and siKIF11 100%); higher = more cells with five or more nucleoli
Settings: 20 nM; 72 h
Consider the following sequences and their measured 5+ nucleoli phenotype percent effect readings.
The reply should consist of the numeric value with the unit placed after it.

For orientation, consider the following solved cases.
{"querySequence": "UGGGAAAGAGAAAGAACAAGUA [hsa-miR-6739-5p]", "observed": "33%"}
{"querySequence": "AGGGAAGGAGGCUUGGUCUUAG [hsa-miR-4747-5p]", "observed": "11.6%"}
{"querySequence": "UGCCUCCUCCGUGGCCUCAG [hsa-miR-6829-3p]", "observed": "-1.77%"}
{"querySequence": "CAUUAUUACUUUUGGUACGCG [hsa-miR-126-5p]", "observed": "12.5%"}
{"querySequence": "UCCCUGGAGUUUCUUCUU [hsa-miR-4308]", "observed": "27.5%"}
{"querySequence": "GUGGAGUCCUGGGGAAUGGAGA [hsa-miR-3198]", "observed": "-28.7%"}
{"querySequence": "GAAAGAGAGCUGAGUGUG [hsa-miR-4311]", "observed": "-27.3%"}
{"querySequence": "UGAGGCAGUAGAUUGAAU [hsa-miR-1827]", "observed": "-33.8%"}

Lookup: Return 5+ nucleoli phenotype percent effect (reported value) for this sequence: UAUUCAGAAAGGUGCCAGUCA [hsa-miR-892c-5p]
Found: 9.47%

Lookup: Return 5+ nucleoli phenotype percent effect (reported value) for this sequence: CAAUUCUCAAAGGAGCCUCCC [hsa-miR-5571-5p]
Found: -26.3%

Lookup: Return 5+ nucleoli phenotype percent effect (reported value) for this sequence: CCCUGGGCCUCUGCUCCCCAG [hsa-miR-939-3p]
Found: -13%

Lookup: Return 5+ nucleoli phenotype percent effect (reported value) for this sequence: UAGCACCAUUUGAAAUCAGUGUU [hsa-miR-29b-3p]
Found: 20.2%

Lookup: Return 5+ nucleoli phenotype percent effect (reported value) for this sequence: UCACCUGACCUCCCAUGCCUGU [hsa-miR-3622a-3p]
Found: 33.1%

Lookup: Return 5+ nucleoli phenotype percent effect (reported value) for this sequence: AGAGGCUGGCCGUGAUGAAUUC [hsa-miR-485-5p]
Found: 22.1%

Lookup: Return 5+ nucleoli phenotype percent effect (reported value) for this sequence: UGAGUGACAGGGGAAAUGGGGA [hsa-miR-1236-5p]
Found: -4.72%

Lookup: Return 5+ nucleoli phenotype percent effect (reported value) for this sequence: GUGAACGGGCGCCAUCCCGAGG [hsa-miR-887]
Found: -3.19%

---

Tested on: MCF10A
Test: percent viability (nuclei count relative to siNT); higher = more viable cells
Conditions: 20 nM; 72 h
Heads up, the class ranges for percent viability are low value = under 40%, medium value = from 40% up to 50%, high value = 50% and over

{"querySequence": "AUCGUGCAUCCCUUUAGAGUGU [hsa-miR-517a-3p]", "labelClass": "medium value"}
{"querySequence": "GUGGGUGCUGGUGGGAGCCGUG [hsa-miR-6741-5p]", "labelClass": "medium value"}
{"querySequence": "UGUGCUUGCUCGUCCCGCCCGCA [hsa-miR-636]", "labelClass": "high value"}
{"querySequence": "GGGGGGGCAGGAGGGGCUCAGGG [hsa-miR-328-5p]", "labelClass": "high value"}
{"querySequence": "AUUGUAGAACCUAAGAUUGGCC [hsa-miR-3674]", "labelClass": "low value"}
{"querySequence": "UCCUUCUGCUCCGUCCCCCAG [hsa-miR-1237-3p]", "labelClass": "high value"}
{"querySequence": "ACCUGCCAGCACCUCCCUGCAG [hsa-miR-4722-3p]", "labelClass": "high value"}
{"querySequence": "UGAGGCGGGGGGGCGAGC [hsa-miR-6087]", "labelClass": "high value"}

Lookup: Which class does CGCAGACAAUGCCUACUGGCCUA [hsa-miR-3166] fall in?
Found: low value

Lookup: Which class does CAAAGUGAUGAGUAAUACUGGCUG [hsa-miR-3609] fall in?
Found: high value

Lookup: Which class does UUGGGAGGGAAGACAGCUGGAGA [hsa-miR-6780a-5p] fall in?
Found: low value
